Recorded measurements of GI50, one per entry
System: DU-145
Experiment: Cytotoxicity against DU-145 human prostate cancer cell line was determined
Assay type: functional
READOUT_LABEL: GI50 (nM)

> print(dat)
                               smiles.input  unit.text  limit.operator  endpoint.result
1    NCCCn1c2c(c3ccccc3c1=O)C(=O)c1ccccc1-2         nM               =              220
2  O=C1c2cc3c(cc2-c2c1c1ccc([N+](=O)[O-])cc1c(=O)n2CCCCl)OCO3         nM               =               98
3  O=C1c2ccccc2-c2c1c1ccc([N+](=O)[O-])cc1c(=O)n2CCCCl         nM               =            40700
4  CN1C(=O)c2cc([N+](=O)[O-])ccc2[C@H]2C(=O)c3cc4c(cc3[C@H]21)OCO4         nM               =               50
5  O=C1c2cc3c(cc2[C@@H]2[C@H]1c1ccc([N+](=O)[O-])cc1C(=O)N2CCCCl)OCO3         nM               <               10
